B1: library; a variant is named by its letters at N, in order (parent)
chain: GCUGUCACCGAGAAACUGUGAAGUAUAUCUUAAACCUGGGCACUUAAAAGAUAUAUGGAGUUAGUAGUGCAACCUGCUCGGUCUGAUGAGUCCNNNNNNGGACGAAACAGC

# Variants of: B1
# ASSAY PROTOCOL: normalized RNA/DNA level with ligand (relative to sTRSVctl = 100) (log10 (% of sTRSVctl)); HEK293T; ligand: cyclic di-GMP (c-di-GMP-II aptamer); ligand concentration (+) RNA-Seq: 1 mM; higher = less ribozyme self-cleavage, higher mRNA level
# CONDITION DESCRIPTION: reporter: mCherry (pCS4076), ligand present: yes
Would you mind telling me the reported normalized RNA/DNA level with ligand (log10) of each entry?
// no unit, no text: just the number

Value of normalized RNA/DNA level with ligand (log10) reported for the variant `UCCCGU` is 1.83

For record `CCAACU` the listed normalized RNA/DNA level with ligand (log10) is 1.75

The variant listed as `CUCGGA` has a reported normalized RNA/DNA level with ligand (log10) of 1.81

Lookup result for `GUCUGU` ; measured normalized RNA/DNA level with ligand (log10): 1.81

What the record says about `CAGGAC` : normalized RNA/DNA level with ligand (log10) is 1.81

normalized RNA/DNA level with ligand (log10) in this record for `UGGAGA` : 1.76

Sure, the documented normalized RNA/DNA level with ligand (log10) for `GGCGAU` is 1.72

Recorded result, `GAUGUG` , normalized RNA/DNA level with ligand (log10): 1.8

For reference, reported normalized RNA/DNA level with ligand (log10) for `CGCAAU` stands at 1.61

According to the records, this variant `AAUGUA` displays normalized RNA/DNA level with ligand (log10) of 1.64

The recorded normalized RNA/DNA level with ligand (log10) for entry `UAGGCG` equals 1.87

Record summary for `UCAUUA` : reported normalized RNA/DNA level with ligand (log10) = 1.73

normalized RNA/DNA level with ligand (log10) reported for this variant `CAGCUC` : 1.87

Sure, the documented normalized RNA/DNA level with ligand (log10) for `GCGAAU` is 1.64

// normalized RNA/DNA level with ligand (log10) value for `CCCUCC` : 1.89

Documented normalized RNA/DNA level with ligand (log10) of `AUCAAA` : 1.77

Entry `AUAACG` — recorded normalized RNA/DNA level with ligand (log10) = 1.76

get_value(item= `CACGAG` , readout=normalized RNA/DNA level with ligand (log10)) returns 1.81

Entry under test: `GACGUA` . Its normalized RNA/DNA level with ligand (log10) was 1.8

Data point: `CAUGAG` ; normalized RNA/DNA level with ligand (log10) = 1.84

`UGCUAG` yielded normalized RNA/DNA level with ligand (log10) of 1.9

normalized RNA/DNA level with ligand (log10) measured on `GAGCUA` = 1.88

Noted for `GCUGGC` : its normalized RNA/DNA level with ligand (log10) reads 1.71

Looking up `GAGCAG` , I found its normalized RNA/DNA level with ligand (log10) recorded as 1.95

// normalized RNA/DNA level with ligand (log10) value for `CCGAGU` : 1.8

Quick note, normalized RNA/DNA level with ligand (log10) for `GUCUAU` landed at 1.78

What the record says about `CAAAAC` : normalized RNA/DNA level with ligand (log10) is 1.77

get_value(item= `CAUGCC` , readout=normalized RNA/DNA level with ligand (log10)) returns 1.89

Measured normalized RNA/DNA level with ligand (log10) of `UGUCUC` : 1.88

So for `CGCGAU` , the logged normalized RNA/DNA level with ligand (log10) turned out to be 1.79

# variant `CUGGUA` ; its normalized RNA/DNA level with ligand (log10) = 1.59

Reported normalized RNA/DNA level with ligand (log10) ( `AAGUUU` ) = 1.88

Form: variant = `GCUAUA` ; normalized RNA/DNA level with ligand (log10) = 1.73

Query `UGCCAU` yields normalized RNA/DNA level with ligand (log10) of 1.81

normalized RNA/DNA level with ligand (log10) for `UUAGCU` is 1.89

`GCGAAA` yielded normalized RNA/DNA level with ligand (log10) of 1.56

Quick note, normalized RNA/DNA level with ligand (log10) for `UCUAAU` landed at 1.78

The variant identified as `UCUCGC` registered its normalized RNA/DNA level with ligand (log10) at 1.88

The variant listed as `UUGGCU` shows normalized RNA/DNA level with ligand (log10) equal to 1.88

`GGGGAA` yielded normalized RNA/DNA level with ligand (log10) of 1.54

# variant `UCAGAG` ; its normalized RNA/DNA level with ligand (log10) = 1.69

For record `AAUCCU` the listed normalized RNA/DNA level with ligand (log10) is 1.86

Sample `ACGUAA` ; normalized RNA/DNA level with ligand (log10) observed: 1.63

Per the record, `CUCGCA` has normalized RNA/DNA level with ligand (log10) of 1.81

// sample `CGUUAU` , its normalized RNA/DNA level with ligand (log10) was 1.61

Documented normalized RNA/DNA level with ligand (log10) of `AAAACU` : 1.79

The value of normalized RNA/DNA level with ligand (log10) measured for the variant `GUACCC` turned out to be 1.88

GET /value?item= `UCCCCA` &field=normalized RNA/DNA level with ligand (log10) returns 1.91

The reported value for `GCGAGU` in terms of normalized RNA/DNA level with ligand (log10) is 1.69

The variant identified as `AUUAAA` registered its normalized RNA/DNA level with ligand (log10) at 1.71

In plain terms, `CUUAAA` has a documented normalized RNA/DNA level with ligand (log10) of 1.53

The variant `CUCCGU` showed normalized RNA/DNA level with ligand (log10) equal to 1.88

The value of normalized RNA/DNA level with ligand (log10) measured for the variant `GAGGGG` turned out to be 1.86

Memo: `UAGCUG` , reported normalized RNA/DNA level with ligand (log10): 1.86

The variant identified as `CAUCCG` registered its normalized RNA/DNA level with ligand (log10) at 1.88

In plain terms, `AGCGGU` has a documented normalized RNA/DNA level with ligand (log10) of 1.8

Short answer for `CUCGGC` : normalized RNA/DNA level with ligand (log10) was 1.9

Entry `UAAAAG` , normalized RNA/DNA level with ligand (log10) reported as 1.84

Note to self: normalized RNA/DNA level with ligand (log10) recorded for `AGGAUG` was 1.63

Recorded normalized RNA/DNA level with ligand (log10) (variant `ACUGAG` ): 1.71

// field: normalized RNA/DNA level with ligand (log10); key: `ACAGGU` ; value = 1.64

Just so you know, measured normalized RNA/DNA level with ligand (log10) for `UCUUAA` came out at 1.81

The measured normalized RNA/DNA level with ligand (log10) associated with `AUCAGG` reads 1.77

Lookup result for `GCGGGG` ; measured normalized RNA/DNA level with ligand (log10): 1.83

Reported normalized RNA/DNA level with ligand (log10) for `GAAUAA` was 1.68

Form: variant = `CCAAAG` ; normalized RNA/DNA level with ligand (log10) = 1.61

Sure, the documented normalized RNA/DNA level with ligand (log10) for `UUACAU` is 1.82

Per the record, `UCAGUC` has normalized RNA/DNA level with ligand (log10) of 1.85

Please fill in: normalized RNA/DNA level with ligand (log10) reported for `ACACCU` = 1.81

# normalized RNA/DNA level with ligand (log10) of `CGCUAC` = 1.81

// normalized RNA/DNA level with ligand (log10) value for `GGUGCA` : 1.91

// recorded normalized RNA/DNA level with ligand (log10) for `AUUCCG` : 1.84

Measured normalized RNA/DNA level with ligand (log10), `GUACAC` : 1.79

The variant identified as `GAUGAA` registered its normalized RNA/DNA level with ligand (log10) at 1.65

Entry `UGAUCC` , normalized RNA/DNA level with ligand (log10) reported as 1.98

For record `ACGCAU` the listed normalized RNA/DNA level with ligand (log10) is 1.68

Entry `UAGCUU` — recorded normalized RNA/DNA level with ligand (log10) = 1.81

normalized RNA/DNA level with ligand (log10) measured on `GUUUGC` = 1.79

Sample `GUUAUG` ; normalized RNA/DNA level with ligand (log10) observed: 1.78

The variant listed as `UUGAAC` has a reported normalized RNA/DNA level with ligand (log10) of 1.82

Record `UCUAAA` , field normalized RNA/DNA level with ligand (log10): 1.74

In plain terms, `UUCCCC` has a documented normalized RNA/DNA level with ligand (log10) of 1.94

Per the records, this variant ( `UCUUCC` ) has normalized RNA/DNA level with ligand (log10) equal to 1.92

The value of normalized RNA/DNA level with ligand (log10) measured for the variant `CCAGCA` turned out to be 1.86

Kindly note the recorded normalized RNA/DNA level with ligand (log10) for `AGUGGA` , which is 1.62

Looking up `UAGUUC` , I see its normalized RNA/DNA level with ligand (log10) listed as 1.89

Query `UGUAAU` yields normalized RNA/DNA level with ligand (log10) of 1.84

// normalized RNA/DNA level with ligand (log10) value for `CUCGCG` : 1.91

response.value for `AUCUCC` (field: normalized RNA/DNA level with ligand (log10)) = 1.9

normalized RNA/DNA level with ligand (log10) recorded for this variant, `CAGUCG` , is 1.9

normalized RNA/DNA level with ligand (log10) in this record for `UGCGUU` : 1.9
